// provenance: patent US12226395B2

Biological target: Nurr1 (Homo sapiens)
Construct: 3 types of plasmid DNA, including DNA containing Nurr1-LBD and DNA with β-galactosidase, were transfected into BE(2)C cells; expressed in transfected cells; host or cells: BE(2)C cells
Assay: Nurr1 activity, luciferase reporter analysis in transfected BE(2)C cells
Format: cell-based
Conditions: Low concentration = 0.1 μM (Table 1); BE(2)C cells, 20 hours
Measured Nurr1 activity (luciferase), multiple of 0.1% DMSO control, listed per entry for reference.
Could you respond with only the numeric value?

Here are 5 compounds together with their reported answers.
C=C(C)[C@]12C[C@@H](C)[C@@]34O[C@](c5ccccc5)(O[C@@H]1C3[C@@H]1O[C@]1(CO)[C@@H](O)[C@@]1(O)C4C[C@H](C)[C@@H]1O)O2 (stereo partly drawn) [Formula 8]
1.7
C=C(C)[C@]12C[C@@H](C)[C@@]34O[C@](c5ccccc5)(O[C@@H]1C3[C@H](O)[C@@](O)(COC(=O)c1ccccc1)[C@@H](O)[C@@]1(O)C4C[C@H](C)[C@@H]1O)O2 (stereo partly drawn) [Formula 3]
1.2
C=C(C)[C@]12C[C@@H](C)[C@@]34O[C@](c5ccccc5)(O[C@@H]1C3[C@@H]1O[C@]1(CO)[C@@H](O)[C@]1(O)C(=O)[C@@H](C)CC41)O2 (stereo partly drawn) [Formula 9]
1.7
C=C(C)[C@]12C[C@@H](C)[C@@]34O[C@](c5ccccc5)(O[C@@H]1C3[C@H](O)[C@@](O)(CO)[C@@H](O)[C@@]1(O)C4C=C(C)[C@@H]1O)O2 (stereo partly drawn) [Formula 7]
1.2
C=C(C)[C@]1(O)C[C@@H](C)[C@@]2(O)C([C@H]1OC(=O)c1ccccc1)[C@H](O)[C@@](O)(COC(=O)c1ccccc1)[C@@H](O)[C@@]1(O)C2C[C@H](C)[C@@H]1O (stereo partly drawn) [Formula 5]
0.9

// query Reported Nurr1 activity (luciferase), multiple of 0.1% DMSO control, compound C=C(C)[C@]12C[C@@H](C)[C@@]34O[C@](c5ccccc5)(O[C@@H]1C3[C@@H]1O[C@]1(COC(=O)c1ccccc1)[C@@H](O)[C@@]1(O)C4C[C@H](C)[C@@H]1O)O2 (stereo partly drawn) [Formula 4] : ____
// result 1.0

* * *

Target: Nurr1 (Homo sapiens, UniProt P43354)
Construct: 3 types of plasmid DNA, including DNA containing Nurr1-LBD and DNA with β-galactosidase, were transfected into BE(2)C cells; expressed in transfected cells; host or cells: BE(2)C cells
Sequence (P43354 360-595 limits assumed): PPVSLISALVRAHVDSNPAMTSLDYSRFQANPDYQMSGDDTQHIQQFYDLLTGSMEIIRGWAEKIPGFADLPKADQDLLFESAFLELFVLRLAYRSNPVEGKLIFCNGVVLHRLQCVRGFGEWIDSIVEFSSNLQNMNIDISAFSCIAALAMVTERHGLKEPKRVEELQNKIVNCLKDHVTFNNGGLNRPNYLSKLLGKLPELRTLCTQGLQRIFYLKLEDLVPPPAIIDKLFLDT
Experiment: Nurr1 activity, luciferase reporter analysis in transfected BE(2)C cells
Type: cell-based
Details: Mid concentration = 1 μM (Table 1); BE(2)C cells, 20 hours
parameter.measured: Nurr1 activity (luciferase), multiple of 0.1% DMSO control
Could you respond with only the numeric value?

Here are 5 compounds together with their reported answers.
C=C(C)[C@]1(O)C[C@@H](C)[C@@]2(O)C([C@H]1OC(=O)c1ccccc1)[C@H](O)[C@@](O)(COC(=O)c1ccccc1)[C@@H](O)[C@@]1(O)C2C[C@H](C)[C@@H]1O (stereo partly drawn) [Formula 5]
1.2
C=C(C)[C@]12C[C@@H](C)[C@@]34O[C@](c5ccccc5)(O[C@@H]1C3[C@H](O)[C@@](O)(COC(=O)c1ccccc1)[C@@H](O)[C@@]1(O)C4C[C@H](C)[C@@H]1O)O2 (stereo partly drawn) [Formula 3]
1.4
C=C(C)[C@]12C[C@@H](C)[C@@]34O[C@](c5ccccc5)(O[C@@H]1C3[C@@H]1O[C@]1(CO)[C@@H](O)[C@]1(O)C(=O)[C@@H](C)CC41)O2 (stereo partly drawn) [Formula 9]
2.4
C=C(C)[C@]12C[C@@H](C)[C@@]34O[C@](c5ccccc5)(O[C@@H]1C3[C@@H]1O[C@]1(CO)[C@@H](O)[C@@]1(O)C4C[C@H](C)[C@@H]1O)O2 (stereo partly drawn) [Formula 8]
2.0
C=C(C)[C@]12C[C@@H](C)[C@@]34O[C@](c5ccccc5)(O[C@@H]1C3[C@@H]1O[C@]1(COC(=O)c1ccccc1)[C@@H](O)[C@@]1(O)C4C[C@H](C)[C@@H]1O)O2 (stereo partly drawn) [Formula 4]
1.4

// moving on: another record for Nurr1 activity (luciferase), multiple of 0.1% DMSO control
// query # get_value(readout= Nurr1 activity (luciferase), multiple of 0.1% DMSO control, system= Nurr1 (Homo sapiens, UniProt P43354)) for C=C(C)[C@]12C[C@@H](C)[C@@]34O[C@](c5ccccc5)(O[C@@H]1C3[C@H](O)[C@@](O)(CO)[C@@H](O)[C@@]1(O)C4C=C(C)[C@@H]1O)O2 (stereo partly drawn) [Formula 7]
// result 2.6
